Target: CYP2D6 (Homo sapiens)
Sequence (P10635 whole entry): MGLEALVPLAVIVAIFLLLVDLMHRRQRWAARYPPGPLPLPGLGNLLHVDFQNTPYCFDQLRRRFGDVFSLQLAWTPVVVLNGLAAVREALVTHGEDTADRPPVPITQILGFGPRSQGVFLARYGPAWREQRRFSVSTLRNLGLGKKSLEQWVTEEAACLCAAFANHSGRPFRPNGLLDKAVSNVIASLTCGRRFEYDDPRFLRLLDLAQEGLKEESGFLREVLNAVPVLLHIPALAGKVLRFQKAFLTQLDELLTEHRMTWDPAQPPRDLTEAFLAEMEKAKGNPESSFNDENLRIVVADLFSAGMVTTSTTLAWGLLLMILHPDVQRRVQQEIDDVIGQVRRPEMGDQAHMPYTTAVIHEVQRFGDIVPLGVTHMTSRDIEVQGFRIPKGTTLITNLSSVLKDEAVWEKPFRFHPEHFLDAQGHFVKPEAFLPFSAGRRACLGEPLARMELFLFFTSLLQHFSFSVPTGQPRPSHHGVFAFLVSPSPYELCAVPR
Test: Inhibition of CYP2D6 in human liver Microsome using dextromethorphan as substrate preincubated for 10 mins followed by NADPH addition and further incubated for 10 mins as substrate by LC-MS/MS analysis relative to control
Conditions: liver microsomes, probe dextromethorphan
parameter_measured: inhibition at 10 min (%)

[
  {
    "smiles_data": "C=C[C@H]1C[N@@]2CC[C@H]1C[C@@H]2[C@@H](O)c1ccnc2ccc(OC)cc12",
    "parameter_measured": "inhibition at 10 min",
    "reported_value": 96.2
  }
]

---

Test system: Candida albicans
Experiment: Antifungal activity against fluconazole-resistant Candida albicans 103 assessed as fungal growth inhibition by CLSI protocol based method
# MIC per entry
parameter_measured: MIC (µg/mL)

[
  {
    "compound": "O=C(NC(Cn1ccnc1)C(=O)c1cccc(Cl)c1)c1ccc(-c2ccc(Cl)cc2)s1 (stereo unspecified)",
    "parameter_measured": "MIC",
    "output_unit": "µg/mL",
    "reading_qualifier": "=",
    "reported_value": 4
  },
  {
    "compound": "O=C(NC(Cn1ccnc1)C(=O)c1ccccc1)c1ccc(-c2ccccc2)s1 (stereo unspecified)",
    "parameter_measured": "MIC",
    "output_unit": "µg/mL",
    "reading_qualifier": "=",
    "reported_value": 4
  },
  {
    "compound": "O=C(NC(Cn1ccnc1)C(=O)c1ccccc1F)c1ccc(-c2ccc(Cl)cc2)s1 (stereo unspecified)",
    "parameter_measured": "MIC",
    "output_unit": "µg/mL",
    "reading_qualifier": "=",
    "reported_value": 4
  },
  {
    "compound": "Cc1ccc(C(=O)C(Cn2ccnc2)NC(=O)c2ccc(-c3ccc(Cl)cc3)s2)cc1 (stereo unspecified)",
    "parameter_measured": "MIC",
    "output_unit": "µg/mL",
    "reading_qualifier": "=",
    "reported_value": 1
  },
  {
    "compound": "COc1ccc(-c2ccc(C(=O)NC(Cn3ccnc3)C(=O)c3ccccc3)s2)cc1 (stereo unspecified)",
    "parameter_measured": "MIC",
    "output_unit": "µg/mL",
    "reading_qualifier": "=",
    "reported_value": 4
  },
  {
    "compound": "O=C(NC(Cn1ccnc1)C(=O)c1cccc(F)c1)c1ccc(-c2ccc(Cl)cc2)s1 (stereo unspecified)",
    "parameter_measured": "MIC",
    "output_unit": "µg/mL",
    "reading_qualifier": "=",
    "reported_value": 2
  },
  {
    "compound": "O=C(NC(Cn1ccnc1)C(=O)c1ccccc1)c1ccc(-c2ccc(Cl)cc2)s1 (stereo unspecified)",
    "parameter_measured": "MIC",
    "output_unit": "µg/mL",
    "reading_qualifier": "=",
    "reported_value": 4
  },
  {
    "compound": "O=C(NC(Cn1ccnc1)C(=O)c1ccccc1)c1ccc(-c2ccc(C(F)(F)F)cc2)s1 (stereo unspecified)",
    "parameter_measured": "MIC",
    "output_unit": "µg/mL",
    "reading_qualifier": "=",
    "reported_value": 2
  },
  {
    "compound": "OC(Cn1cncn1)(Cn1cncn1)c1ccc(F)cc1F",
    "parameter_measured": "MIC",
    "output_unit": "µg/mL",
    "reading_qualifier": ">",
    "reported_value": 64
  },
  {
    "compound": "COc1ccc(C(=O)C(Cn2ccnc2)NC(=O)c2ccc(-c3ccc(Cl)cc3)s2)cc1 (stereo unspecified)",
    "parameter_measured": "MIC",
    "output_unit": "µg/mL",
    "reading_qualifier": "=",
    "reported_value": 8
  },
  {
    "compound": "O=C(NC(Cn1ccnc1)C(=O)c1ccc(F)cc1)c1ccc(-c2ccc(Cl)cc2)s1 (stereo unspecified)",
    "parameter_measured": "MIC",
    "output_unit": "µg/mL",
    "reading_qualifier": "=",
    "reported_value": 8
  }
]

---

System: A549
Assay: Cytotoxicity against human A549 cells assessed as reduction in cell viability measured after 96 hrs by MTT assay
Type: ADME, cell-based
Conditions: A549, 96 h
parameter_measured: IC50 (µM)

[
  {
    "molecule": "O=C(NC(Cn1ccnc1)C(=O)c1cccc(F)c1)c1ccc(-c2ccc(Cl)cc2)s1 (stereo not given)",
    "assayed_target": "A549",
    "parameter_measured": "IC50",
    "output_unit": "µM",
    "reading_qualifier": "=",
    "reported_value": 26.5
  },
  {
    "molecule": "Cc1ccc(C(=O)C(Cn2ccnc2)NC(=O)c2ccc(-c3ccc(Cl)cc3)s2)cc1 (stereo not given)",
    "assayed_target": "A549",
    "parameter_measured": "IC50",
    "output_unit": "µM",
    "reading_qualifier": "=",
    "reported_value": 19.1
  },
  {
    "molecule": "OC(Cn1cncn1)(Cn1cncn1)c1ccc(F)cc1F",
    "assayed_target": "A549",
    "parameter_measured": "IC50",
    "output_unit": "µM",
    "reading_qualifier": ">",
    "reported_value": 30
  },
  {
    "molecule": "CCC(C)n1ncn(-c2ccc(N3CCN(c4ccc(OCC5COC(Cn6cncn6)(c6ccc(Cl)cc6Cl)O5)cc4)CC3)cc2)c1=O (stereo not given)",
    "assayed_target": "A549",
    "parameter_measured": "IC50",
    "output_unit": "µM",
    "reading_qualifier": ">",
    "reported_value": 30
  },
  {
    "molecule": "C[C@@H](c1ncncc1F)[C@](O)(Cn1cncn1)c1ccc(F)cc1F",
    "assayed_target": "A549",
    "parameter_measured": "IC50",
    "output_unit": "µM",
    "reading_qualifier": ">",
    "reported_value": 30
  }
]

---

Assay: Metabolic stability in human plasma assessed as parent compound remaining after 60 mins by LC-MS/MS analysis
Assay type: ADME, cell-free
Settings: read-out: Stability

[
  {
    "molecule": "O=C(NC(Cn1ccnc1)C(=O)c1cccc(F)c1)c1ccc(-c2ccc(Cl)cc2)s1 (configuration not stated)",
    "remaining at 1 h / %": 73.4
  },
  {
    "molecule": "Cc1ccc(C(=O)C(Cn2ccnc2)NC(=O)c2ccc(-c3ccc(Cl)cc3)s2)cc1 (configuration not stated)",
    "remaining at 1 h / %": 93.1
  }
]

---

System: Cryptococcus neoformans
Test: Antifungal activity against Cryptococcus neoformans CGMCC2.3161 assessed as fungal growth inhibition by CLSI protocol based method
Format: functional
# MIC per entry
parameter_measured: MIC (µg/mL)

[
  {
    "molecule": "O=C(NC(Cn1ccnc1)C(=O)c1ccccc1)c1ccc2ccccc2c1 (stereo unspecified)",
    "assayed_target": "Cryptococcus neoformans",
    "parameter_measured": "MIC",
    "reading_qualifier": "=",
    "reported_value": 32
  },
  {
    "molecule": "Cc1ccc(C(=O)C(Cn2ccnc2)NC(=O)c2ccc(-c3ccc(Cl)cc3)s2)cc1 (stereo unspecified)",
    "assayed_target": "Cryptococcus neoformans",
    "parameter_measured": "MIC",
    "reading_qualifier": "=",
    "reported_value": 0.5
  },
  {
    "molecule": "O=C(NC(Cn1ccnc1)C(=O)c1ccccc1)c1noc2c1CCc1ccccc1-2 (stereo unspecified)",
    "assayed_target": "Cryptococcus neoformans",
    "parameter_measured": "MIC",
    "reading_qualifier": "=",
    "reported_value": 16
  },
  {
    "molecule": "O=C(NC(Cn1ccnc1)C(=O)c1ccccc1)c1nc2ccc(Br)cc2s1 (stereo unspecified)",
    "assayed_target": "Cryptococcus neoformans",
    "parameter_measured": "MIC",
    "reading_qualifier": ">",
    "reported_value": 64
  },
  {
    "molecule": "O=C(NC(Cn1ccnc1)C(=O)c1ccccc1)c1cc2ccccc2s1 (stereo unspecified)",
    "assayed_target": "Cryptococcus neoformans",
    "parameter_measured": "MIC",
    "reading_qualifier": ">",
    "reported_value": 64
  },
  {
    "molecule": "O=C(NC(Cn1ccnc1)C(=O)c1ccc(F)cc1F)c1ccc(-c2ccc(Cl)cc2)s1 (stereo unspecified)",
    "assayed_target": "Cryptococcus neoformans",
    "parameter_measured": "MIC",
    "reading_qualifier": "=",
    "reported_value": 2
  }
]

---

System: Candida albicans
Experiment: Fungicidal activity against Candida albicans ATCC SC5314 assessed as inhibition of visible fungal growth measured after 48 hrs
Assay type: functional
# MFC per entry
parameter_measured: MFC (µg/mL)

[
  {
    "molecule": "O=C(NC(Cn1ccnc1)C(=O)c1cccc(F)c1)c1ccc(-c2ccc(Cl)cc2)s1 (stereo not given)",
    "reading_qualifier": "=",
    "reported_value": 25
  },
  {
    "molecule": "OC(Cn1cncn1)(Cn1cncn1)c1ccc(F)cc1F",
    "reading_qualifier": ">",
    "reported_value": 64
  },
  {
    "molecule": "Cc1ccc(C(=O)C(Cn2ccnc2)NC(=O)c2ccc(-c3ccc(Cl)cc3)s2)cc1 (stereo not given)",
    "reading_qualifier": "=",
    "reported_value": 0.125
  },
  {
    "molecule": "CCC(C)n1ncn(-c2ccc(N3CCN(c4ccc(OCC5COC(Cn6cncn6)(c6ccc(Cl)cc6Cl)O5)cc4)CC3)cc2)c1=O (stereo not given)",
    "reading_qualifier": "=",
    "reported_value": 16
  },
  {
    "molecule": "C[C@@H](c1ncncc1F)[C@](O)(Cn1cncn1)c1ccc(F)cc1F",
    "reading_qualifier": "=",
    "reported_value": 8
  }
]
